test.target: T1, Ole e 1 (olive, UniProt P19963 1-145)
T1 construct: Also used oligonucleotide-barcoded for cell staining; also called olive allergen; negative control allergen
T1 sequence (looked up): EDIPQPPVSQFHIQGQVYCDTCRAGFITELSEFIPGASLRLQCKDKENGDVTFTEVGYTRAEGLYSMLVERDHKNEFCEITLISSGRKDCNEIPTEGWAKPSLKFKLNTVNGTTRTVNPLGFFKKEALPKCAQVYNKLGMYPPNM
assay.info: centered log-ratio of barcode count
metric.name: Olee1_ab_clr

• IgE mAb 17_2 (antibody, V domains shown, IgE (IGHE, IGKC) from HDM-exposed mouse, LymphNode) VH: EVHLQQSGPDLVKPGASVMISCQASGYSFTAYYINWVKQSPEKSLEWIGEINPGSGGVIYNRKFEAKATLIVDKSSNTAFMLLTRLTSEDSAIYYCARKGFYQFDYWGQGTTLTVSS VL: SVVMTQIPKFLVVSAGDRVTITCKASQSVNDGVFWYQQKTGQSPKLVIYHTSNRYTGVSDRFTGSGYGTEFTFTISAVQSEDLAIYFCQQDYTSPLTFGGGTRLEIK = 0.603
• IgE mAb 21_2 (antibody, V domains shown, IgE (IGHE, IGKC) from HDM-exposed mouse, LymphNode) VH: QVQLQQSGPELVKPGASVKISCKAPGNAFSYSWMNWVKQRPGKGLEWVGRIYPGDGDTNYNGKFMGKATLTADKSSNTAYIQLSSLTSEDSAVYFCARSGGGTLYWYFDVWGTGTTVTVSS VL: DIVMTQSPSSLALSVGQKVTMNCRSSQSLLNSFNQKNYLAWFQQKPGQSPRLLIYFASTRESGVPDRFIGSGSGTDFTLTISSVQAEDLADYFCQQHYNTPLTFGAGTTLELK = 0.826
• IgE mAb 8_2 (antibody, V domains shown, IgE (IGHE, IGKC) from HDM-exposed mouse, BoneMarrow) VH: QVLLKESGPGLVAPSQSLSITCTVSGFSLTSYGVSWVRQPPGKGLEWLGVIWGDGNTDYHSALISRLSIRKDNSKSQVFLKLNSLQTDDTATYYCAIGSPFAYWGQGTLVTVSA VL: DVLMTQTPLSLPVSLGDQVSISCRSSQNIVHSTGNTYLEWYLQKPGQSPKLLIFKVSNRLSGVPDRFSGSGSGTDFTLNISRVEAADLGIYSCFQGSHVPFTFGSGTKLEIK = -1.13
• IgE mAb 1_2 (antibody, V domains shown, IgE (IGHE, IGKC) from HDM-exposed mouse, BoneMarrow) VH: QIQLVQSGPELKKPGETVKISCKASGYTFTTYGMSWVKQAPGKGLKWMGWINTYSGVPTYADDFKGRFVFSLETSASTAYLQINNLKNEDTATYFCARAYYYGSSYLIWYFDVWGTGTTVTVSS VL: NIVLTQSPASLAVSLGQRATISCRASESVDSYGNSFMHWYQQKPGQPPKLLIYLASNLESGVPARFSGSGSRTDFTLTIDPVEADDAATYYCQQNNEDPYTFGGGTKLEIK = -1.12

FYI, the data here is from patent US20230349919A1.
